Consider the following compounds; for each one, report its inhibition at 10 µM.
Test system: primary mouse cortical neurons
Construct: primary cortical neurons, DIV 10
assay_protocol: cells
Set-up: Protection from NMDA-induced (30 uM, 10 min) neuronal death; Hoechst nuclear morphology by automated microscopy
measurement_conditions: Cortical neurone, 20 h, read-out: % inhibition, inhibition of NMDA-induced cell death (protection score), 30 min pre-treatment
Protocol: On DIV 10, compounds were applied to the cells reaching an end concentration of 10 μM. Cells were incubated for 30 min at 37 °C, 5% CO2 before adding NMDA (30 μM). Cells were incubated for another 10 min in the incubator, then washed twice with defined minimal medium containing 10 μM of the respective compound and incubated for an additional 20 h before readout. […] The survival rate S was calculated by dividing the number of living cells by the total number of cells. […]
Kindly provide the numeric value in % only, without the unit symbol.

# input What value of inhibition at 10 µM has been reported for the following compound? O=C(O)C(O)Cc1ccc(O)c(O)c1 (stereo not shown) [Sodium Danshensu]
# output 6.44

# input Again, but for C[C@@H]1CC[C@@]2(OC1)O[C@H]1C[C@H]3[C@@H]4CC=C5C[C@@H](O[C@@H]6O[C@H](CO)[C@@H](O[C@@H]7O[C@@H](C)[C@H](O)[C@@H](O)[C@H]7O)[C@H](O)[C@H]6O[C@@H]6O[C@@H](C)[C@H](O)[C@@H](O)[C@H]6O)CC[C@]5(C)[C@H]4CC[C@]3(C)[C@H]1[C@@H]2C [Dioscin (Collettiside III)]
# output 32.2

# input Again, but for O=C(O)[C@H]1O[C@@H](Oc2cc3oc(-c4ccccc4)cc(=O)c3c(O)c2O)[C@H](O)[C@@H](O)[C@@H]1O
# output -3.47

# input Again, but for CC(=O)O[C@H]1C[C@@H]2CC[C@@H]3[C@H](CC[C@@]4(C)[C@H]3C[C@H]([N+]3(C)CCCCC3)[C@@H]4OC(C)=O)[C@@]2(C)C[C@@H]1[N+]1(C)CCCCC1
# output 7.54

# input Again, but for O=C1C=CC[C@@H]2[C@H]3CCCN4CCC[C@@H](CN12)[C@@H]34
# output 0.911

# input Again, but for O=C(CCc1ccc(O)cc1)c1c(O)cc(O)cc1O [Phloretin (Dihydronaringenin)]
# output -1.62

# input Again, but for Cc1onc(-c2ccccc2Cl)c1C(=O)N[C@@H]1C(=O)N2[C@@H]1SC(C)(C)[C@@H]2C(=O)O [Cloxacillin sodium (Cloxacap)]
# output 0.144
